Reported IC50 DNA/IC50 RNA values are given for each entry in this list.
Test system: P388 cells
RUN_DESCRIPTION: Inhibition of RNA synthesis (2-[14C]uridine incorporation) in P388 cells
Assay type: cell-based, murine
CONDITION_NOTES: ratio

The following molecules have reported results that may help.
MOLECULE	IC50 DNA/IC50 RNA
Cc1c2oc3c(C)c(O)cc(C(=O)N[C@@H]4C(=O)N[C@H](C(C)C)C(=O)N5CCC[C@H]5C(=O)N(C)CC(=O)N(C)[C@@H](C(C)C)C(=O)O[C@@H]4C)c3nc-2c(C(=O)N[C@@H]2C(=O)N[C@H](C(C)C)C(=O)N3CCC[C@H]3C(=O)N(C)CC(=O)N(C)[C@@H](C(C)C)C(=O)O[C@@H]2C)c(N)c1=O [2a, 7-hydroxyactinomycin D, reference compound]	1.00
Cc1c2oc3c(C)c4oc(-c5ccccc5)nc4c(C(=O)NC4C(=O)NC(C(C)C)C(=O)N5CCCC5C(=O)N(C)CC(=O)N(C)C(C(C)C)C(=O)OC4C)c3nc-2c(C(=O)NC2C(=O)NC(C(C)C)C(=O)N3CCCC3C(=O)N(C)CC(=O)N(C)C(C(C)C)C(=O)OC2C)c(N)c1=O (stereo not drawn) [8a]	11.43

Asked: Entry Cc1c2oc3c(C)c(O)c(N)c(C(=O)NC4C(=O)NC(C(C)C)C(=O)N5CCCC5C(=O)N(C)CC(=O)N(C)C(C(C)C)C(=O)OC4C)c3nc-2c(C(=O)NC2C(=O)NC(C(C)C)C(=O)N3CCCC3C(=O)N(C)CC(=O)N(C)C(C(C)C)C(=O)OC2C)c(N)c1=O (stereo not drawn) [4a, 7-Hydroxy-8-amino-actinomycin D] : reported IC50 DNA/IC50 RNA = ?
Given back: 0.97

---

Test system: calf-thymus DNA
RUN_DESCRIPTION: Equilibrium binding to calf-thymus DNA, Scatchard plots of binding isotherms (spectrophotometric)
CONDITION_NOTES: Scatchard plot
EXPERIMENTAL_READOUT: Kapp (equilibrium binding constant) (M⁻¹)
State the answer as a number, implicitly in M⁻¹.

Below are worked cases with known answers.
COMPOUND	Kapp (equilibrium binding constant), M⁻¹
Cc1c2oc3c(C)c(O)c(N)c(C(=O)NC4C(=O)NC(C(C)C)C(=O)N5CCCC5C(=O)N(C)CC(=O)N(C)C(C(C)C)C(=O)OC4C)c3nc-2c(C(=O)NC2C(=O)NC(C(C)C)C(=O)N3CCCC3C(=O)N(C)CC(=O)N(C)C(C(C)C)C(=O)OC2C)c(N)c1=O (stereo not drawn) [4a, 7-Hydroxy-8-amino-actinomycin D]	6.3e+07
Cc1nc2c(C(=O)NC3C(=O)NC(C(C)C)C(=O)N4CCCC4C(=O)N(C)CC(=O)N(C)C(C(C)C)C(=O)OC3C)c3nc4c(C(=O)NC5C(=O)NC(C(C)C)C(=O)N6CCCC6C(=O)N(C)CC(=O)N(C)C(C(C)C)C(=O)OC5C)c(N)c(=O)c(C)c-4oc3c(C)c2o1 (stereo not drawn) [7a]	2.5e+06

Please find the next compound below.
Asked: So what Kapp (equilibrium binding constant) did Cc1c2oc3c(C)c4oc(-c5ccccc5)nc4c(C(=O)NC4C(=O)NC(C(C)C)C(=O)N5CCCC5C(=O)N(C)CC(=O)N(C)C(C(C)C)C(=O)OC4C)c3nc-2c(C(=O)NC2C(=O)NC(C(C)C)C(=O)N3CCCC3C(=O)N(C)CC(=O)N(C)C(C(C)C)C(=O)OC2C)c(N)c1=O (stereo not drawn) [8a] get with calf-thymus DNA?
Given back: 2.3e+06

---

Tested on: calf-thymus DNA
RUN_DESCRIPTION: Equilibrium binding to calf-thymus DNA, Scatchard plots of binding isotherms (spectrophotometric)
CONDITION_NOTES: Scatchard plot
*1 amine or outer side, *2 acyl side, *3 side chain or, on linkers, in order; H or OH if unused. Where a SMILES comes first, the peptide text is derived from it. Bridges are numbered along the chain shown (N, C = ends). Roman numbers before positions name the chains, in order. [ ]: non-standard residue; d: D form. Actinocin(9to1) = Cc1c2oc3c(C)ccc(C(=O)[*:1])c3nc-2c(C(=O)[*:2])c(N)c1=O; NMeV = CN[C@H](C(=O)O)C(C)C; Sar = CNCC(=O)O
EXPERIMENTAL_READOUT: Kapp (equilibrium binding constant) (M⁻¹)
// note: answer is a bare numeric in M⁻¹

Asked: Which Kapp (equilibrium binding constant) reading was recorded for the compound Cc1c2oc3c(C)ccc(C(=O)N[C@@H]4C(=O)N[C@H](C(C)C)C(=O)N5CCC[C@H]5C(=O)N(C)CC(=O)N(C)[C@@H](C(C)C)C(=O)O[C@@H]4C)c3nc-2c(C(=O)N[C@@H]2C(=O)N[C@H](C(C)C)C(=O)N3CCC[C@H]3C(=O)N(C)CC(=O)N(C)[C@@H](C(C)C)C(=O)O[C@@H]2C)c(N)c1=O [AMD, Actinomycin D] (I: T[dV]P[Sar][NMeV] / II: T[dV]P[Sar][NMeV]; ester I:1-I:C, II:1-II:C; linker I:N-II:N via Actinocin(9to1)) ?
Given back: 2.3e+07

---

Entries annotated with measured MTD (maximum tolerated dose)
RUN_DESCRIPTION: Maximum tolerated dose (LD10) in tumor-free BDF1 male mice
Type: in vivo
CONDITION_NOTES: lethal dose for 10% normal BDF1 male mice, 21 days (LD10); ip days 1, 5 and 9
*1 amine or outer side, *2 acyl side, *3 side chain or, on linkers, in order; H or OH if unused. Where a SMILES comes first, the peptide text is derived from it. Bridges are numbered along the chain shown (N, C = ends). Roman numbers before positions name the chains, in order. [ ]: non-standard residue; d: D form. Actinocin(9to1) = Cc1c2oc3c(C)ccc(C(=O)[*:1])c3nc-2c(C(=O)[*:2])c(N)c1=O; NMeV = CN[C@H](C(=O)O)C(C)C; Sar = CNCC(=O)O
The reply should contain only the number, in milligram/kilogram.

COMPOUND	MTD (maximum tolerated dose), milligram/kilogram
Cc1c2oc3c(C)c4oc(-c5ccccc5)nc4c(C(=O)NC4C(=O)NC(C(C)C)C(=O)N5CCCC5C(=O)N(C)CC(=O)N(C)C(C(C)C)C(=O)OC4C)c3nc-2c(C(=O)NC2C(=O)NC(C(C)C)C(=O)N3CCCC3C(=O)N(C)CC(=O)N(C)C(C(C)C)C(=O)OC2C)c(N)c1=O (centres unmarked)	1.80
Cc1c2oc3c(C)c4oc(-c5ccccc5)nc4c(C(=O)NC4C(=O)NC(C(C)C)C(=O)N5CCCC5C(=O)N(C)CC(=O)N(C)C(C(C)C)C(=O)OC4C)c3nc-2c(C(=O)NC2C(=O)NC(C(C)C)C(=O)N3CCCC3C(=O)N(C)CC(=O)N(C)C(C(C)C)C(=O)OC2C)cc1=O (centres unmarked) [10a, 2-Phenyl-AMD--OZL]	2.0
Cc1c2oc3c(C)ccc(C(=O)N[C@@H]4C(=O)N[C@H](C(C)C)C(=O)N5CCC[C@H]5C(=O)N(C)CC(=O)N(C)[C@@H](C(C)C)C(=O)O[C@@H]4C)c3nc-2c(C(=O)N[C@@H]2C(=O)N[C@H](C(C)C)C(=O)N3CCC[C@H]3C(=O)N(C)CC(=O)N(C)[C@@H](C(C)C)C(=O)O[C@@H]2C)c(N)c1=O [AMD, Actinomycin D] (I: T[dV]P[Sar][NMeV] / II: T[dV]P[Sar][NMeV]; ester I:1-I:C, II:1-II:C; linker I:N-II:N via Actinocin(9to1))	0.25

Asked: # MTD (maximum tolerated dose) lookup, item Cc1c2oc3c(C)c(O)c(N)c(C(=O)NC4C(=O)NC(C(C)C)C(=O)N5CCCC5C(=O)N(C)CC(=O)N(C)C(C(C)C)C(=O)OC4C)c3nc-2c(C(=O)NC2C(=O)NC(C(C)C)C(=O)N3CCCC3C(=O)N(C)CC(=O)N(C)C(C(C)C)C(=O)OC2C)c(N)c1=O (centres unmarked) [4a, 7-Hydroxy-8-amino-actinomycin D]
Given back: 2.40

Asked: // query MTD (maximum tolerated dose) value for entry Cc1c2oc3c(C)c(O)cc(C(=O)N[C@@H]4C(=O)N[C@H](C(C)C)C(=O)N5CCC[C@H]5C(=O)N(C)CC(=O)N(C)[C@@H](C(C)C)C(=O)O[C@@H]4C)c3nc-2c(C(=O)N[C@@H]2C(=O)N[C@H](C(C)C)C(=O)N3CCC[C@H]3C(=O)N(C)CC(=O)N(C)[C@@H](C(C)C)C(=O)O[C@@H]2C)c(N)c1=O [2a, 7-hydroxyactinomycin D, reference compound]
Given back: 3.50

---

Test system: P388 cells
RUN_DESCRIPTION: Inhibition of RNA synthesis (2-[14C]uridine incorporation) in P388 cells
Format: cell-based, murine
CONDITION_NOTES: ratio
Property: IC50 DNA/IC50 RNA; scope: individual molecules

MOLECULE	ASSAYED_SYSTEM	IC50 DNA/IC50 RNA
Cc1nc2c(C(=O)NC3C(=O)NC(C(C)C)C(=O)N4CCCC4C(=O)N(C)CC(=O)N(C)C(C(C)C)C(=O)OC3C)c3nc4c(C(=O)NC5C(=O)NC(C(C)C)C(=O)N6CCCC6C(=O)N(C)CC(=O)N(C)C(C(C)C)C(=O)OC5C)c(N)c(=O)c(C)c-4oc3c(C)c2o1 (centres unmarked)	P388 cells	11.22

Consider now this further molecule.
Asked: Enter reported IC50 DNA/IC50 RNA observed with P388 cells for Cc1c2oc3c(C)c4oc(-c5ccccc5)nc4c(C(=O)NC4C(=O)NC(C(C)C)C(=O)N5CCCC5C(=O)N(C)CC(=O)N(C)C(C(C)C)C(=O)OC4C)c3nc-2c(C(=O)NC2C(=O)NC(C(C)C)C(=O)N3CCCC3C(=O)N(C)CC(=O)N(C)C(C(C)C)C(=O)OC2C)cc1=O (centres unmarked) [10a, 2-Phenyl-AMD--OZL]
Given back: 1.78
